Test system: RXF 393 renal
Test: NCI-60 one-dose screen, 48 h
Conditions: 10 µM unless noted
This is part of a sample that, as a whole, favours compounds with a hit. Of some 83,000 tested, about 20% had one in any assay. Active and inactive are the calls of the source. Rule for the calls: active = growth percent below 10; inactive = the rest.
Assign a class; possible classes are TRUE for active, FALSE for inactive

Consider the following illustrative entries.
>>> assigned_class("C[C@]12CCC(=O)C[C@@H]1CC[C@@H]1[C@@H]2CC[C@]2(C)[C@@H](OC(=O)N(CCCl)N=O)CC[C@@H]12")
"FALSE"
>>> assigned_class("CCCCS(=O)(=O)Cl")
"FALSE"
>>> assigned_class("CC12CCC3C(CCC4CC(O)CCC43C)C1CCC2=O (configuration not stated)")
"FALSE"
>>> assigned_class("O=[N+]([O-])c1ccc(P(=O)(O)O)cc1")
"FALSE"
>>> assigned_class("CC/C(Cc1ccccc1)=C(\\c1ccc(OCCN2CCCC2)cc1)c1ccc(OC(=O)NCc2ccccc2)cc1")
"FALSE"
>>> assigned_class("N#CC(C#N)=Cc1cccc(F)c1")
"FALSE"
>>> assigned_class("O=[N+]([O-])c1ccc2scc3c4ccccc4nc-3c2c1")
"TRUE"
>>> assigned_class("NC(N)=NC(N)=Nc1ccc(Cl)cc1")
"FALSE"
>>> assigned_class("C/C(=C\\c1ccn(-c2ccc(N)cc2F)n1)[C@@H]1C[C@@H]2O[C@]2(C)CCC[C@H](C)[C@H](O)[C@@H](C)C(=O)C(C)(C)[C@@H](O)CC(=O)O1")
"TRUE"
>>> assigned_class("CC1=CC(=Nc2ccc(N(CCCl)CCCl)cc2)C=C(C)C1=O")
"TRUE"

Hi, do you know how `O=C1C=C(N2CC2)c2ccccc2C1=O` came out in this test? FALSE

Hi, do you know how `COc1ccc(N(CC(=O)NCCC[Te]c2ccccc2)C(=O)c2ccccc2)cc1` came out in this test? FALSE

----------
Test system: CCRF-CEM leukemia
Assay: NCI-60 one-dose screen, 48 h (100 = growth as untreated, 0 = no growth, -100 = all killed)
Details: 10 µM unless noted
This is part of a sample that, as a whole, favours compounds with a hit. Of some 83,000 tested, about 20% had one in any assay.
Threshold-based label: growth under 90% gives condition met, growth not under 90% gives condition not met.

>>> assigned_class("Cn1cc(-c2csc(-c3cn(CCCCN4CCOCC4)c4ccc(F)cc34)n2)c2cccnc21")
"condition met"
>>> assigned_class("COC(=O)C12C3C4C1C1C2C3C41NC(=O)c1csc([C@@H](C[C@H](C(C)C)N(C)C(=O)[C@@H](NC(=O)[C@H]2CCCCN2C)C2CC2)OC(C)=O)n1 (stereo not given in full)")
"condition met"
>>> assigned_class("O=C(NC(Cl)=C(Cl)Cl)P(=O)(c1ccccc1)c1ccccc1")
"condition not met"
>>> assigned_class("CN1CCN(c2ccc(Cl)cc2)CC1")
"condition met"
>>> assigned_class("CN1[C@@H](CC(=O)c2ccccc2)CCC[C@H]1CC(=O)c1ccccc1")
"condition not met"

Problem: For the molecule `Cc1cc[c-]cc1.Fc1c[c-]c(-c2ccccn2)c(F)c1.N#CCC[PH+](CCC#N)c1ccccc1.[Pt+2]` , is growth under 90%? condition met

Problem: For the molecule CC1=CC(=O)CCC12CCOC2=O (stereo not given) , is growth under 90%? condition met
